# tested target: human Y-family DNA polymerase kappa (hpol κ) (Homo sapiens, UniProt Q9UBT6)
# Sequence (Q9UBT6 19-526): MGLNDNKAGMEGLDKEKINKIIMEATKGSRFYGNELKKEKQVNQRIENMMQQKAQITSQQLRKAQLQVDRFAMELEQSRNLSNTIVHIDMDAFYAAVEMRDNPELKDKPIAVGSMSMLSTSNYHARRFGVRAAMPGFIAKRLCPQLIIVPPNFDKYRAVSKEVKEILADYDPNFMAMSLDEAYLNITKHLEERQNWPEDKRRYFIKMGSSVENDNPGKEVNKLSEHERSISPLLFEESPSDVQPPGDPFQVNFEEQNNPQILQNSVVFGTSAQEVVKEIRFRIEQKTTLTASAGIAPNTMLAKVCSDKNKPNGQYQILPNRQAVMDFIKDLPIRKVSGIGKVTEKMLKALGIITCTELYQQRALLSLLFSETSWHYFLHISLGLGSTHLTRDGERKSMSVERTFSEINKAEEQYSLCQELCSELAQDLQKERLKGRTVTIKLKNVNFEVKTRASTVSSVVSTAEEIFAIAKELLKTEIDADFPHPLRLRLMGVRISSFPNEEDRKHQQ
# assay: Fluorescence-based polymerase assay, hpol κ
# Type: biochemical
assay metric: IC50 (µM)

smiles structure: O=C1NC(=S)NC(=O)C1=Cc1cn(C(=O)c2ccccc2Br)c2ccc(Cl)cc12
tested target: human Y-family DNA polymerase kappa (hpol κ) (Homo sapiens, UniProt Q9UBT6)
assay metric: IC50
measured number: 59

----------
# tested target: UniProt:Q9UBT6
# assay: Fluorescence-based polymerase assay, hpol κ
# Type: biochemical
# measurement parameters: read-out: IC50 for inhibition of hpol κ; 3 nM hpol κ, 60 nM DNA; mean ± standard deviation

smiles structure: O=C1NC(=S)NC(=O)C1=Cc1cn(C(=O)c2cccc3ccccc23)c2ccc(Cl)cc12
IC50 (µM): 32.9
